Every entry's value here was drawn from the supplement of paper PMC5412046.

tested on: SB.mhdgc-1; assay: area under the dose-response curve of % viability (trapezoidal, 11 doses) (% viability x log10 concentration); higher = less cytotoxic; details: SB.mhdgc-1 (hereditary c.1380delA CDH1 gastric cancer)
Structures can show the parent of a compound that is named as a salt.
area under the dose-response curve by entry:
Provide a numeric answer; units are not to be included.

Nc1ncnc2ccccc12 [4-Quinazolinamine] (top concentration 46.0829 µM) : 545
CCc1nc(-c2cccc(C)c2)c(-c2ccnc(NC(=O)c3ccccc3)c2)s1 [TAK-715] (top concentration 46.0829 µM) : 452
NCC/1=C/NC(=S)N1[C@H]2CCC3=C(F)C=C(F)C=C3C2 [Nepicastat hydrochloride] (top concentration 46.0829 µM) : 545

# input for lookup
Request the reported area under the dose-response curve associated with C1CN\2C[C@@H](\N=C2S1)C3=CC=CC=C3 [L-tetramisol] (top concentration 46.0829 µM)
564

====

system: SB.mhdgc-1; experiment: viability at highest tested concentration (MAXR) relative to DMSO; higher = less cytotoxic; conditions: SB.mhdgc-1 (hereditary c.1380delA CDH1 gastric cancer)
Where a name gives a salt, the structure may show the parent alone.
viability by entry:

The following compounds have reported results that may help.
Clc1cccc(-c2nnnn2Cc2cccnc2)c1Cl (top concentration 46.0829 µM) : 88.6%
O=C1NC(=O)/C(=C/c2ccc3nccnc3c2)S1 (top concentration 23.0415 µM) : 32.1%
COC1=C(OC)C(=O)C(C/C=C(\C)CC/C=C(\C)CC/C=C(\C)CC/C=C(\C)CC/C=C(\C)CC/C=C(\C)CC/C=C(\C)CC/C=C(\C)CC/C=C(\C)CCC=C(C)C)=C(C)C1=O [Coenzyme Q10] (top concentration 46.0829 µM) : 92.7%
O=c1[nH]c(=O)n(C2CCCO2)cc1F (stereo unspecified) [Tegafur] (top concentration 92.1659 µM) : 63.8%
C=CC(=O)Nc1cc(NC(=O)c2ccc(C)c(NC(=O)c3ccno3)c2)cc(C(F)(F)F)c1 (top concentration 46.0829 µM) : 4.49%

Request the reported viability associated with CC(C)C(=O)Oc1ccc(CO)cc1[C@H](CCN(C(C)C)C(C)C)c1ccccc1 [Fesoterodine fumarate] (top concentration 46.0829 µM)
70.3%

Request the reported viability associated with CCn1cc(-c2ccnc3[nH]c(-c4cccc(CN(C)C)c4)cc23)c(-c2ccc(NC(=O)N(C)C)cc2)n1 (top concentration 46.0829 µM)
32.2%

Request the reported viability associated with Cc1ccccc1C(=O)Nc1ccc(C(=O)N2CCCC(O)c3cc(Cl)ccc32)c(C)c1 (stereo unspecified) [Tolvaptan] (top concentration 46.0829 µM)
14%

Request the reported viability associated with CC(=O)NC(C)c1ccc(Oc2ccc(OC(C)C)cc2)cc1 (stereo unspecified) [ACC1 BMS] (top concentration 46.0829 µM)
45.2%

Request the reported viability associated with O=C(Nc1ncc(SCCN2CCCC2)s1)[C@]1(c2ccc([S+](=O)([O-])C3CC3)cc2)C[C@H]1C1CCCCC1 (top concentration 46.0829 µM)
2.7%

Request the reported viability associated with CCNC(=O)Nc1ccc2ncc(Nc3ccc(C)cc3)nc2n1 (top concentration 46.0829 µM)
20.8%

====

area under the dose-response curve by entry:
test system: SB.mhdgc-1; assay: area under the dose-response curve of % viability (trapezoidal, 11 doses) (% viability x log10 concentration); higher = less cytotoxic; conditions: SB.mhdgc-1 (hereditary c.1380delA CDH1 gastric cancer)
Provide a numeric answer; units are not to be included.

O=C1C(CCC(O)c2ccc(F)cc2)C(c2ccc(O)cc2)N1c1ccc(F)cc1 (configuration not stated) [Ezetimibe] (top concentration 46.0829 µM) : 534
COc1cc(C(C)C)c(Oc2cnc(NC(CO)CO)nc2N)cc1I [Ro 51] (top concentration 46.0829 µM) : 415
CC(C)CNc1ccnc(NCc2csc(-c3ccccc3)n2)n1 [KHS101] (top concentration 46.0829 µM) : 438
CN(C(Cc1ccc(O[S+](=O)([O-])c2cccc3cnccc23)cc1)C(=O)N1CCN(c2ccccc2)CC1)[S+](=O)([O-])c1cccc2cnccc12 (configuration not stated) [KN-62] (top concentration 46.0829 µM) : 374
Cc1ccc([S+](=O)([O-])N[C@@H](Cc2ccccc2)C(=O)CCl)cc1 [TPCK] (top concentration 46.0829 µM) : 497
CN(C)CCOc1ccc(-c2nc(-c3ccncc3)c(-c3ccc4c(c3)CC/C4=N\O)[nH]2)cc1 (top concentration 46.0829 µM) : 496
C/C(O)=C(\C#N)C(=O)Nc1cc(Br)ccc1Br [LFM-A13] (top concentration 46.0829 µM) : 528
CN(C)c1ccc(-c2nc3c(N4CCN(CC(=O)Nc5nccs5)CC4)c(Cl)cnc3[nH]2)cc1 (top concentration 46.0829 µM) : 410

# input for lookup
Request the reported area under the dose-response curve associated with CC/C(=C(/c1ccc(O)cc1)c1ccc(OCCNC)cc1)c1ccccc1 [Endoxifen] (top concentration 46.0829 µM)
352
